System: hamster chronic carcinogenicity bioassay, TD50
Assay: DSSTox (CPDBAS) Carcinogenic Potency Database Summary Hamster Bioassay Results
Activity calls are given as the source filed them.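 Rule for the calls: active = at least one hamster carcinogenic potency value with a tumor site listed for any sex group; inactive = no potency or tumor site yet a negative hamster study.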

chemical_smiles	outcome
CN(CCCC(=O)c1cccnc1)N=O	inactive
O=[N+]([O-])c1ccc2c3c(cccc13)CC2	inactive

====

Test system: hamster chronic carcinogenicity bioassay, TD50
Assay: DSSTox (CPDBAS) Carcinogenic Potency Database Summary Hamster Bioassay Results
observed_property: Potency

Sample answers from the record:
                     compound   value_reported
0  OCC1CO1 (stereo not given)   56.1 mg/kg/day
1              CN(C)CCN(C)N=O   3.83 mg/kg/day
2       CCN(N=O)C(=O)NCC(C)=O  0.443 mg/kg/day
3                 O=NN1CCCCC1   83.3 mg/kg/day
4     CC(=O)CN(N=O)C(=O)NCCCl  0.338 mg/kg/day
5            CC(=O)CN(CCO)N=O  0.997 mg/kg/day

Provide Potency values for the following items, in order.
1. C=CCl
2. O=NN1CCOC1
3. NC(=O)N(CCc1ccccc1)N=O
4. CC=O

Output:
1: 39.4 mg/kg/day; 2: 0.798 mg/kg/day; 3: 0.964 mg/kg/day; 4: 565 mg/kg/day

====

System: hamster chronic carcinogenicity bioassay, TD50
Assay: DSSTox (CPDBAS) Carcinogenic Potency Database Summary Hamster Bioassay Results
Source text: The Carcinogenic Potency Database (CPDB) is a unique and widely used international resource of the results of over 6500 chronic, long-term animal cancer tests on over 1500 chemical substances. The CPDB provides easy access to the bioassay literature, with qualitative and quantitative analyses of both positive and negative experiments that have been published over the past 50 years in the general literature and by the National Cancer Institute/National Toxicology Program. […]
Active and inactive are the calls of the source.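 Rule for the calls: active = at least one hamster carcinogenic potency value with a tumor site listed for any sex group; inactive = no potency or tumor site yet a negative hamster study.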
observed_property: outcome

In [3]: df
Out[3]:
                                compound  observed_property  value_reported
0                   O=C(O)c1ccc(O)c(O)c1            outcome        inactive
1  O=NN(CCO)CC(O)CO (stereo unspecified)            outcome        inactive
2                        S=C=NCCc1ccccc1            outcome        inactive

====

System: hamster chronic carcinogenicity bioassay, TD50
Experiment: DSSTox (CPDBAS) Carcinogenic Potency Database Summary Hamster Bioassay Results
observed_property: Potency

Example molecules with recorded Potency:
In [3]: df
Out[3]:
                           molecule  observed_property  value_reported
0  CC(=O)N(O)c1ccc2c(c1)Cc1ccccc1-2            Potency   2.1 mg/kg/day
1                    C=CCN(CC=C)N=O            Potency  1.54 mg/kg/day
2               CC(=O)CN(N=O)C(N)=O            Potency  0.13 mg/kg/day

For each of the items listed, what is its Potency?
1. O=NN1CCOCC1
2. CC(O)CN(CC(O)CO)N=O (stereo not given)
3. [O-][Br+2]([O-])O
4. CCN(N=O)C(=O)NCCO
5. ClC(Cl)=C(c1ccc(Cl)cc1)c1ccc(Cl)cc1
6. CC(=O)CN(CC(O)CO)N=O (stereo not given)
7. O=S(=O)(O)O
8. CCOC(N)=O

Output:
3.57 mg/kg/day
1.59 mg/kg/day
533 mg/kg/day
1.04 mg/kg/day
202 mg/kg/day
0.754 mg/kg/day
118 mg/kg/day
65.2 mg/kg/day

Could you tell me Potency for each of these molecules? They are listed below.
1. CN(CC(O)CO)N=O (stereo not given)
2. O=NN1CCCC1c1cccnc1 (stereo not given)
3. O=NN1CCCC1
4. NN

Output:
0.94 mg/kg/day
10.8 mg/kg/day
14.2 mg/kg/day
4.16 mg/kg/day

Please supply Potency for each of the following items, keeping them in order.
1. CC(=O)Nc1ccc2c(c1)Cc1ccccc1-2
2. CNNC
3. CN(C)C(=O)Cl
4. Cc1cc(=O)[nH]c(=S)[nH]1
5. COCCl
6. CN(N)C=O
7. CC1CN(N=O)CC(C)N1C (stereo not given)
8. CC1CN(N=O)CC(C)O1 (stereo not given)

Output:
1. 17.4 mg/kg/day
2. 0.179 mg/kg/day
3. 0.625 mg/kg/day
4. 53.4 mg/kg/day
5. 16.4 mg/kg/day
6. 5.8 mg/kg/day
7. 1.32 mg/kg/day
8. 2 mg/kg/day

Hi team, please reply with Potency for each item in this list.
1. O=CNc1nc(-c2ccc([N+](=O)[O-])o2)cs1
2. CC1CN(N=O)C(=O)O1 (stereo not given)
3. CN(C)N
4. CC(=O)Nc1nc(-c2ccc([N+](=O)[O-])o2)cs1

Output:
9.77 mg/kg/day
0.172 mg/kg/day
124 mg/kg/day
8.91 mg/kg/day

Hi! Can you tell me Potency for each of these molecules?
1. CNN
2. Clc1c(Cl)c(Cl)c(Cl)c(Cl)c1Cl
3. CC1CN(N=O)CC(C)N1N=O (stereo not given)
4. CCOC(=O)N(C)N=O

Output:
1. 11.5 mg/kg/day
2. 4.96 mg/kg/day
3. 3.1 mg/kg/day
4. 0.127 mg/kg/day

Lab note: each molecule below needs its Potency filled in.
1. O=NN1CCC1
2. NC(=O)/C(=C\c1ccc([N+](=O)[O-])o1)c1ccco1
3. C=CCN(CC(C)=O)N=O
4. O=CNNc1nc(-c2ccc([N+](=O)[O-])o2)cs1

Output:
1. 7.14 mg/kg/day
2. 164 mg/kg/day
3. 1.19 mg/kg/day
4. 16.6 mg/kg/day
